src = paper PMC4336329

Target: human ether-à-go-go-related gene (hERG) potassium channel (human, UniProt Q12809);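 further: peak tail current of the secondary pulse compared with the same well before compound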
Sequence (Q12809 whole entry, looked up): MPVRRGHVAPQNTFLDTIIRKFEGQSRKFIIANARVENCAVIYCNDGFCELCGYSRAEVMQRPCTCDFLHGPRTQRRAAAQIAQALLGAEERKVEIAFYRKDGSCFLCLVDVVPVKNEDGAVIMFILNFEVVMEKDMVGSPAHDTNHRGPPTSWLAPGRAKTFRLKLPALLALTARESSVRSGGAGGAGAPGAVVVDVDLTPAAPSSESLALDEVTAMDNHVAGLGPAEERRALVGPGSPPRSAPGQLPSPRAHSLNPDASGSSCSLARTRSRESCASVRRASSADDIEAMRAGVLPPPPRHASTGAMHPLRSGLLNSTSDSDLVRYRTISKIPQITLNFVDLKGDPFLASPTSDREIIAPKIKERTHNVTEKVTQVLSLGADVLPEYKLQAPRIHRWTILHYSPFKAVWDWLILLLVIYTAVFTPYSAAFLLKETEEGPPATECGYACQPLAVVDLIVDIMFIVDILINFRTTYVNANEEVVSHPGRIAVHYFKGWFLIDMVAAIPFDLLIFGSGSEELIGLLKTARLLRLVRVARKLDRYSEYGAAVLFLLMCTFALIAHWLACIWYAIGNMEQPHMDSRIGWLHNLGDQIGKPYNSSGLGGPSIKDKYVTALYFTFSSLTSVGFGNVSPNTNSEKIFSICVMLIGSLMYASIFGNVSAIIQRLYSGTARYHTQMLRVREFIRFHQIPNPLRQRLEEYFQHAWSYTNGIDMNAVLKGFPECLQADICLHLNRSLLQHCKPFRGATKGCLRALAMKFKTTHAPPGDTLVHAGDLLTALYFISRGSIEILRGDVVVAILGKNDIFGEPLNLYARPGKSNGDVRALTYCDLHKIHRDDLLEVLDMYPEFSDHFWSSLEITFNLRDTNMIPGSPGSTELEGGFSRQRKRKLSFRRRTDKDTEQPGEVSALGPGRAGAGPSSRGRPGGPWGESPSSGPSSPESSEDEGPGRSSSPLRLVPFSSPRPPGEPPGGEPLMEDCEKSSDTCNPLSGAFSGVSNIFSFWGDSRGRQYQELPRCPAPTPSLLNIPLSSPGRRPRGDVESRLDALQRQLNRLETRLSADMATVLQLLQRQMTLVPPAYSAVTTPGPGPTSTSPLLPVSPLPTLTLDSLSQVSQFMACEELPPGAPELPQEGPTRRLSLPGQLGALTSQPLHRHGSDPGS
Assay: primary screen, population patch clamp on CHO cells stably expressing hERG; higher = less effect of the substance
The campaign covered roughly 310,000 compounds. About 14,000 (4.5%) showed an effect of 50% or more. Effects have a minus sign here. The sample holds strong results, similar compounds and a random draw of the others, so the mix is not that of the screen.
Would you mind telling me the reported hERG current change (%, negative = inhibition) at 10uM of each entry?
Your answer is read as %, so omit the unit and give the number.

# hERG current change (%, negative = inhibition) at 10uM (compound: C/C(=N\NC(=O)c1ccc(CN2CCOCC2)cc1)c1cccc([N+](=O)[O-])c1 ) is -19.5

# hERG current change (%, negative = inhibition) at 10uM (compound: Cc1ccc(S(=O)(=O)Nc2c(C)nc3nc(C)[nH]n3c2=O)c(C)c1 ) is 10.3

# hERG current change (%, negative = inhibition) at 10uM (compound: Cc1cc(=O)c2cc(C(=O)c3ccccc3)ccc2[nH]1 ) is -4.4

# hERG current change (%, negative = inhibition) at 10uM (compound: CN1CCN(c2oc(COc3ccc(-c4ccccc4)cc3)nc2C#N)CC1 ) is -19

# hERG current change (%, negative = inhibition) at 10uM (compound: Cc1nn(Cc2ccccc2Cl)c(C)c1C(=O)OCC(=O)N1CC(C)OC(C)C1 (stereo not shown) ) is 1.43

# hERG current change (%, negative = inhibition) at 10uM (compound: Cc1ccc(OCc2nc(C#N)c(N3CCCCC3)o2)cc1 ) is -4.24

# hERG current change (%, negative = inhibition) at 10uM (compound: CCN1CCN(c2oc(COc3ccc(Cl)cc3)nc2C#N)CC1 ) is -77

# hERG current change (%, negative = inhibition) at 10uM (compound: Cc1nnc(-c2cnn(-c3ccccc3)c2N)n1Cc1cccc(C(F)(F)F)c1 ) is -18.8

# hERG current change (%, negative = inhibition) at 10uM (compound: Cc1ccc2oc(C(=O)N(C)CCC(O)c3ccccc3)c(C)c2c1 (stereo not shown) ) is 11.5

# hERG current change (%, negative = inhibition) at 10uM (compound: Clc1ccc(-c2csc(Nc3cccnc3)n2)cc1 ) is 13.5

----------
Molecular target: human ether-à-go-go-related gene (hERG) potassium channel (human, UniProt Q12809);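 further: peak tail current of the secondary pulse compared with the same well before compound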
Experiment: primary screen, population patch clamp on CHO cells stably expressing hERG; higher = less effect of the substance
Experimental: Briefly, Chinese hamster ovary (CHO) cells stably expressing the hERG channel were dislodged from tissue culture flasks and dispensed into PPC plates. […] During the recording, background leak currents were estimated by a 100 ms step to -80 mV from an initial holding potential of -70 mV and subtracted from the subsequent current measurement. The campaign was conducted in two phases using slight differences in recording protocol. […]
Hit rate of the full screen: of about 310,000 compounds, about 14,000 (4.5%) showed an effect of 50% or more. The effect is printed as a negative number. The sample holds strong results, similar compounds and a random draw of the others, so the mix is not that of the screen.
OUTCOME_MEASURE: hERG current change (%, negative = inhibition) at 10uM (%)
Your answer is read as %, so omit the unit and give the number.

# hERG current change (%, negative = inhibition) at 10uM (compound: CCOC(=O)c1cc(NC(=O)COc2ccc([N+](=O)[O-])cc2)cc(C(=O)OCC)c1 ) is -12.9

# hERG current change (%, negative = inhibition) at 10uM (compound: CC(C)C[C@@H](CSc1ccccc1)N1CCN(C)CCC1=O ) is -16

# hERG current change (%, negative = inhibition) at 10uM (compound: CCN(CC)c1cc(NCCO)c([N+](=O)[O-])c2nonc12 ) is -25.1

# hERG current change (%, negative = inhibition) at 10uM (compound: O=C(NCc1ccc(F)cc1)C(c1ccc(F)cc1)N(C(=O)c1csnn1)C1CC1 (centres unmarked) ) is 9.3

# hERG current change (%, negative = inhibition) at 10uM (compound: Cc1cccc(N(C(=O)c2csnn2)C(C(=O)NCc2ccccc2)c2ccc(C)o2)c1 (centres unmarked) ) is -54.6

# hERG current change (%, negative = inhibition) at 10uM (compound: CC(C)c1ccc(/C=N/NC(=O)C(=O)NCCCN2CCOCC2)cc1 ) is -20.6

# hERG current change (%, negative = inhibition) at 10uM (compound: CCCOC(=O)c1cccc(NC(=O)COc2ccc([N+](=O)[O-])cc2)c1 ) is -26.9

# hERG current change (%, negative = inhibition) at 10uM (compound: Cc1ccc(C(C(=O)NCc2ccccc2)N(C(=O)c2csnn2)c2cccc3ccccc23)o1 (centres unmarked) ) is -13.2

# hERG current change (%, negative = inhibition) at 10uM (compound: CC(C)C[C@@H](CO)N1CCN(C)CCC1=O ) is -4.26

# hERG current change (%, negative = inhibition) at 10uM (compound: CC(C)C[C@@H](CN=[N+]=[N-])N1CCN(CC(C)C)CCC1=O ) is -3.55

# hERG current change (%, negative = inhibition) at 10uM (compound: CC(C)CNC(=O)c1cccc(NC(=O)COc2cccc([N+](=O)[O-])c2)c1 ) is -24.7

# hERG current change (%, negative = inhibition) at 10uM (compound: CCN(CC)CCN(Cc1cc2cc3c(cc2[nH]c1=O)OCCO3)C(=S)NCC(C)C ) is -4.96

# hERG current change (%, negative = inhibition) at 10uM (compound: CC(C)CN1CCC(=O)N([C@H](CSc2ccccc2)Cc2ccccc2)CC1 ) is -67.9

# hERG current change (%, negative = inhibition) at 10uM (compound: CC(C)CN1CCC(=O)N([C@H](CN=[N+]=[N-])Cc2ccccc2)CC1 ) is -22.9

# hERG current change (%, negative = inhibition) at 10uM (compound: Cc1ccc(C(C(=O)NCc2ccc(F)cc2)N(C(=O)c2csnn2)C2CC2)o1 (centres unmarked) ) is -56.7

# hERG current change (%, negative = inhibition) at 10uM (compound: Cc1ccc(C(C(=O)NC2CCCCC2)N(C(=O)c2csnn2)C2CCCC2)o1 (centres unmarked) ) is -7.71

# hERG current change (%, negative = inhibition) at 10uM (compound: COc1ccc(/C=C(\NC(=O)c2ccc(C)cc2)C(=O)NCCCN2CCOCC2)cc1OC ) is 19.9

# hERG current change (%, negative = inhibition) at 10uM (compound: CC(C)C[C@@H](CO)N1CCN(Cc2ccc(Br)cc2)CCC1=O ) is -13.5

# hERG current change (%, negative = inhibition) at 10uM (compound: O=C(Cn1cnc2c(nnn2Cc2ccccc2F)c1=O)N1CCN(c2ccccc2)CC1 ) is -31.2

# hERG current change (%, negative = inhibition) at 10uM (compound: CC(C)CNC(=S)N(CCN(C)C)Cc1cc2cc3c(cc2[nH]c1=O)OCO3 ) is 0.354
